# MEASURED TARGET: L-lactate dehydrogenase (Plasmodium falciparum (isolate CDC / Honduras))
# EXPERIMENT NOTES: PfLDH activity inhibition – cell lysate, 3D7 strain, counter-screen for P. falciparum growth inhibition project (AID 2304);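 note: 0% = vehicle and 100% = reference inhibitor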
# RUN PARAMETERS: P. falciparum 3D7 crude extract, LDH APAD/NBT absorbance; at 2 µM; hits give high values
The source made the active and inactive calls. The rule behind the calls is not given here.
MEASURED QUANTITY: inhibition

**Query** Find the recorded inhibition belonging to `COc1cc2nc(NCc3ccccc3)nc(NCc3ccccc3)c2cc1OC` and report it.
**Result** -3% (inactive)

**Query** Find the recorded inhibition belonging to `c1ccc2[nH]c(-c3ccc(-c4ccc(CN5CCN(c6ccncc6)CC5)cc4)s3)nc2c1` and report it.
**Result** -5% (inactive)

**Query** Find the recorded inhibition belonging to `CCn1c(-c2nonc2N)nc2cnc(Oc3cccc(NC(=O)c4ccc(OCCCN5CCCCC5)cc4)c3)cc21` and report it.
**Result** -4% (inactive)

**Query** Find the recorded inhibition belonging to `O=C(Nc1cccc(CN2CCCN(Cc3ccc(O)cc3)CC2)c1)c1cc(F)cc(F)c1` and report it.
**Result** 0% (inactive)

**Query** Find the recorded inhibition belonging to CCCCCC(=O)NCC(NCCCNc1cc(=O)c2ccccc2[nH]1)c1cc(Br)cc(Br)c1 (centres undefined) and report it.
**Result** -8% (inactive)

**Query** Find the recorded inhibition belonging to CN(C)c1ccc(-c2csc(C(=O)NC3CCN(Cc4ccc(C(C)(C)C)cc4)C3)c2)cc1 (centres undefined) and report it.
**Result** -1% (inactive)

**Query** Find the recorded inhibition belonging to `Cc1ccc(-n2c(C)nc3c(Nc4ccc(-c5ccncc5)cc4)ncnc32)c(C)c1` and report it.
**Result** -4% (inactive)

**Query** Find the recorded inhibition belonging to `CC(C)CC(=O)Nc1cc(=O)[nH]c2nc(-c3ccccc3)nn12` and report it.
**Result** -6% (inactive)

**Query** Find the recorded inhibition belonging to `COc1cc(F)c2nccc([C@@H](O)CN3CCC(NCc4nc5c(F)cccc5[nH]4)CC3)c2c1` and report it.
**Result** -4% (inactive)

**Query** Find the recorded inhibition belonging to `CC[C@H](NC(=O)c1ccc(NC(=O)OC(C)(C)C)cc1)C(=O)N[C@@H](CO)C(=O)NCCCCc1ccccc1` and report it.
**Result** 1% (inactive)

**Query** Find the recorded inhibition belonging to `COc1cc(C(=O)N2CCN(C(C)C)CC2)ccc1CN(C)CCCN1CCN(c2cccc(Cl)c2Cl)CC1` and report it.
**Result** 0% (inactive)

**Query** Find the recorded inhibition belonging to `O=C(Nc1cccc(-c2cc3ccccc3[nH]2)c1)C1CCN(Cc2ccccc2O)CC1` and report it.
**Result** -1% (inactive)

**Query** Find the recorded inhibition belonging to `Nc1nonc1-c1nc2c(-c3cccc(Cl)c3)nccc2n1CCCNC(=O)Cc1ccc(Cl)cc1` and report it.
**Result** -2% (inactive)

**Query** Find the recorded inhibition belonging to Fc1cccc(COc2ccc(Nc3ncnc4sc(C#CC5CCCCN5)cc34)cc2Cl)c1 (centres undefined) and report it.
**Result** 3% (inactive)

**Query** Find the recorded inhibition belonging to `Cc1ccc(CN2CCN(c3cc4c(cc3Cl)CCN4C(=O)Cc3ccc(NC(=O)c4ccc(C(F)(F)F)cc4)cc3)CC2)cc1` and report it.
**Result** 4% (inactive)

**Query** Find the recorded inhibition belonging to `O=C(Nc1ccncc1)c1cc(C(=O)Nc2ccncc2)cc([N+](=O)[O-])c1` and report it.
**Result** -3% (inactive)

**Query** Find the recorded inhibition belonging to `CN(C)CCOc1cccc(-c2cnc(N)c(-c3nc4ccc(S(C)(=O)=O)cc4[nH]3)c2)c1` and report it.
**Result** 1% (inactive)

**Query** Find the recorded inhibition belonging to `Cc1cc(NC(=O)Nc2ccc(C(C)C)cc2)c2ccccc2n1` and report it.
**Result** -1% (inactive)

**Query** Find the recorded inhibition belonging to `O=C(CCc1cnc[nH]1)Nc1ccc(-c2ccc(-c3nc4ccc(F)cc4[nH]3)cc2)cc1` and report it.
**Result** -1% (inactive)

**Query** Find the recorded inhibition belonging to `N=C(N)c1ccc2nc(SCc3ccccc3)[nH]c2c1` and report it.
**Result** 1% (inactive)

**Query** Find the recorded inhibition belonging to CC1(C)CCC(=Cc2ccc(Cl)cc2)CC1(O)Cn1ccnc1 (centres undefined) and report it.
**Result** -4% (inactive)

**Query** Find the recorded inhibition belonging to `CCOc1cc(C(=O)Nc2cccnc2)cc(Br)c1OCCC(C)C` and report it.
**Result** 1% (inactive)

**Query** Find the recorded inhibition belonging to `CCOC(=O)c1ccc(NC(=O)Nc2ccc(-c3ccc(-c4nc5c(C)cccc5[nH]4)s3)cc2)cc1` and report it.
**Result** -4% (inactive)

**Query** Find the recorded inhibition belonging to `Cc1ccc(NC(=O)c2ccc(CN3CCCN(CC4CCCCC4)CC3)cc2)cc1F` and report it.
**Result** -2% (inactive)

**Query** Find the recorded inhibition belonging to `Cc1ccc(C(=O)NC2CC2)cc1-c1ccc2c(cnn2S(=O)(=O)c2ccc(F)cc2)c1` and report it.
**Result** -2% (inactive)

**Query** Find the recorded inhibition belonging to `CCN(CC)CCN(Cc1ccc(-c2ccc(C(F)(F)F)cc2)cc1)C(=O)Cn1c(CCc2ccc(F)c(F)c2F)nc(=O)c2ccccc21` and report it.
**Result** -10% (inactive)

**Query** Find the recorded inhibition belonging to `O=C(CSc1nc(-c2ccccc2Cl)ns1)Nc1cccc(Cl)c1` and report it.
**Result** -4% (inactive)

**Query** Find the recorded inhibition belonging to CCCCN(CCCC)CC(O)c1cc(-c2ccc(Cl)cc2)nc2c(Cl)cc(Cl)cc12 (centres undefined) and report it.
**Result** 1% (inactive)

**Query** Find the recorded inhibition belonging to `CN(C)C(=S)N=Nc1c(O)[nH]c2ccc(OC(F)(F)F)cc12` and report it.
**Result** 3% (inactive)

**Query** Find the recorded inhibition belonging to `COc1cccc(C(=O)Nc2ccc(-c3nc4ccccc4[nH]3)cc2)c1` and report it.
**Result** -3% (inactive)

**Query** Find the recorded inhibition belonging to `CC(C)NCc1ccc(-c2ccc(NC(=O)c3cccc(Cl)c3)cc2)cc1` and report it.
**Result** -2% (inactive)

**Query** Find the recorded inhibition belonging to `COc1cc(CNc2ncc(-c3ccsc3)c(-c3nccs3)n2)cc(OC)c1` and report it.
**Result** -3% (inactive)

**Query** Find the recorded inhibition belonging to `CCOc1ccc2nc(C)cc(NN=Cc3cccnc3)c2c1` and report it.
**Result** 1% (inactive)

**Query** Find the recorded inhibition belonging to `Cc1nc(N)nc(N)c1-c1ccc(Br)cc1` and report it.
**Result** 3% (inactive)

**Query** Find the recorded inhibition belonging to `COc1cc2ccccc2cc1CCNCCCCNCCc1cc2ccccc2cc1OC` and report it.
**Result** 2% (inactive)

**Query** Find the recorded inhibition belonging to `Cc1cc(S(=O)(=O)N2CCCCC(c3ccc(C(F)(F)F)cc3)=N2)c(Cl)cc1Cl` and report it.
**Result** 0% (inactive)

**Query** Find the recorded inhibition belonging to `Cn1ccnc1CNC(=O)c1ccc(-c2ccc(-c3nc4ccc(C(F)(F)F)cc4[nH]3)s2)cc1` and report it.
**Result** 3% (inactive)

**Query** Find the recorded inhibition belonging to `COC(=O)c1ccc(-c2ccc(C(=O)NCC3CCN(c4nc(N)c5cc(OC)c(OC)cc5n4)CC3)cc2)cc1` and report it.
**Result** -4% (inactive)

**Query** Find the recorded inhibition belonging to `CS(=O)(=O)NCCCNCc1ccc(-c2ccc(-c3nc4ccc(C(F)(F)F)cc4[nH]3)cc2)cc1` and report it.
**Result** 1% (inactive)
